Measured values drawn from patent US5840684A for this set.

Listed below: mean geometric MIC, Vancomycin Sensitive Strains values for each entry.
# Test system: vancomycin-susceptible enterococci
# assay details: broth micro-dilution, mean geometric MIC
# Assay type: cell-based, Enterococcus faecium and Enterococcus faecalis
# measurement setup: enterococci, 24-hour incubation
The reply should be a number in µg/mL, with the unit left off.

[[record]]
compound = "CNC(CC(C)C)C(=O)NC1C(=O)NC(CC(N)=O)C(=O)NC2C(=O)NC3C(=O)NC(C(=O)NC(C(=O)O)c4cc(O)cc(O)c4-c4cc3ccc4O)C(OC3CC(C)(N)C(O)C(C)O3)c3ccc(c(Cl)c3)Oc3cc2cc(c3OC2OC(CO)C(O)C(O)C2OC2CC(C)(NCc3cc4ccccc4c4ccccc34)C(O)C(C)O2)Oc2ccc(cc2Cl)C1O (centres unmarked) [Compound 11]"
unit_symbol = "µg/mL"
test_result = 0.22


Field: next compound
Incoming: I would be grateful if you could share the reported mean geometric MIC, Vancomycin Sensitive Strains for CCCCCCCCOc1ccc(-c2ccc(CNC3(C)CC(OC4C(Oc5c6cc7cc5Oc5ccc(cc5Cl)C(OC5CC(C)(N)C(O)C(C)O5)C5NC(=O)C(NC(=O)C7NC(=O)C(CC(N)=O)NC(=O)C(NC(=O)C(CC(C)C)NC)C(O)c7ccc(c(Cl)c7)O6)c6ccc(O)c(c6)-c6c(O)cc(O)cc6C(C(=O)O)NC5=O)OC(CO)C(O)C4O)OC(C)C3O)cc2)cc1 (centres unmarked) [Compound 23] .
Outgoing: 2.0

* * *

Listed below: MIC values for each entry.
# System: Staphylococcus aureus SA1199B
# Type: cell-based
The reply should be a number in µg/mL, with the unit left off.

[[record]]
compound = "CNC(CC(C)C)C(=O)NC1C(=O)NC(CC(N)=O)C(=O)NC2C(=O)NC3C(=O)NC(C(=O)NC(C(=O)O)c4cc(O)cc(O)c4-c4cc3ccc4O)C(OC3CC(C)(N)C(O)C(C)O3)c3ccc(c(Cl)c3)Oc3cc2cc(c3OC2OC(CO)C(O)C(O)C2OC2CC(C)(NCc3ccc(Oc4ccc(OC)cc4)cc3)C(O)C(C)O2)Oc2ccc(cc2Cl)C1O (centres unmarked)"
readout_name = "MIC"
unit_symbol = "µg/mL"
test_result = 1


Field: next compound
Incoming: I would be grateful if you could share the reported MIC for CNC(CC(C)C)C(=O)NC1C(=O)NC(CC(N)=O)C(=O)NC2C(=O)NC3C(=O)NC(C(=O)NC(C(=O)O)c4cc(O)cc(O)c4-c4cc3ccc4O)C(OC3CC(C)(NCc4ccc(OCCOC(C)(C)C)cc4)C(O)C(C)O3)c3ccc(c(Cl)c3)Oc3cc2cc(c3OC2OC(CO)C(O)C(O)C2OC2CC(C)(NCc3ccc(OCCOC(C)(C)C)cc3)C(O)C(C)O2)Oc2ccc(cc2Cl)C1O (centres unmarked) .
Outgoing: 1

* * *

# Tested on: Streptococcus pyogenes C203
# assay details: broth micro-dilution MIC
# Assay type: cell-based
# Procedure: The MIC's were determined using a standard broth micro-dilution assay.
Listed below: MIC values for each entry.

[[record]]
compound = "CNC(CC(C)C)C(=O)NC1C(=O)NC(CC(N)=O)C(=O)NC2C(=O)NC3C(=O)NC(C(=O)NC(C(=O)O)c4cc(O)cc(O)c4-c4cc3ccc4O)C(OC3CC(C)(N)C(O)C(C)O3)c3ccc(c(Cl)c3)Oc3cc2cc(c3OC2OC(CO)C(O)C(O)C2OC2CC(C)(NCc3ccc4c(c3)CCc3ccccc3-4)C(O)C(C)O2)Oc2ccc(cc2Cl)C1O (centres unmarked)"
test_result = "≤ 0.06 µg/mL"


Field: next compound
Incoming: I would be grateful if you could share the reported MIC for CNC(CC(C)C)C(=O)NC1C(=O)NC(CC(N)=O)C(=O)NC2C(=O)NC3C(=O)NC(C(=O)NC(C(=O)O)c4cc(O)cc(O)c4-c4cc3ccc4O)C(OC3CC(C)(N)C(O)C(C)O3)c3ccc(c(Cl)c3)Oc3cc2cc(c3OC2OC(CO)C(O)C(O)C2OC2CC(C)(NCc3cccc4c3oc3ccccc34)C(O)C(C)O2)Oc2ccc(cc2Cl)C1O (centres unmarked) .
Outgoing: ≤ 0.06 µg/mL

* * *

# System: Staphylococcus aureus S13E
# Assay type: cell-based
Decide using MIC alone. Strictly below 0.5 µg/mL: Condition met. Equal to or above 0.5 µg/mL: Condition not met.

Past entries and their recorded results:
[[record]]
compound = "CNC(CC(C)C)C(=O)NC1C(=O)NC(CC(N)=O)C(=O)NC2C(=O)NC3C(=O)NC(C(=O)NC(C(=O)O)c4cc(O)cc(O)c4-c4cc3ccc4O)C(OC3CC(C)(N)C(O)C(C)O3)c3ccc(c(Cl)c3)Oc3cc2cc(c3OC2OC(CO)C(O)C(O)C2OC2CC(C)(NCc3ccc(OS(=O)(=O)c4c(C)c(C)c(C)c(C)c4C)cc3)C(O)C(C)O2)Oc2ccc(cc2Cl)C1O (stereo not drawn)"
category_label = "Condition not met"

[[record]]
compound = "CNC(CC(C)C)C(=O)NC1C(=O)NC(CC(N)=O)C(=O)NC2C(=O)NC3C(=O)NC(C(=O)NC(C(=O)O)c4cc(O)cc(O)c4-c4cc3ccc4O)C(OC3CC(C)(N)C(O)C(C)O3)c3ccc(c(Cl)c3)Oc3cc2cc(c3OC2OC(CO)C(O)C(O)C2OC2CC(C)(NCc3cccc4ccccc34)C(O)C(C)O2)Oc2ccc(cc2Cl)C1O (stereo not drawn)"
category_label = "Condition met"

[[record]]
compound = "CC(C)CC(C(=O)NC1C(=O)NC(CC(N)=O)C(=O)NC2C(=O)NC3C(=O)NC(C(=O)NC(C(=O)O)c4cc(O)cc(O)c4-c4cc3ccc4O)C(OC3CC(C)(N)C(O)C(C)O3)c3ccc(c(Cl)c3)Oc3cc2cc(c3OC2OC(CO)C(O)C(O)C2OC2CC(C)(N)C(O)C(C)O2)Oc2ccc(cc2Cl)C1O)N(C)Cc1ccc(-c2ccc(Cl)cc2)cc1.O=C(O)C(F)(F)F (stereo not drawn)"
category_label = "Condition met"

[[record]]
compound = "CNC(CC(C)C)C(=O)NC1C(=O)NC(CC(N)=O)C(=O)NC2C(=O)NC3C(=O)NC(C(=O)NC(C(=O)O)c4cc(O)cc(O)c4-c4cc3ccc4O)C(OC3CC(C)(N)C(O)C(C)O3)c3ccc(c(Cl)c3)Oc3cc2cc(c3OC2OC(CO)C(O)C(O)C2OC2CC(C)(NCCCCC#Cc3ccccc3)C(O)C(C)O2)Oc2ccc(cc2Cl)C1O (stereo not drawn)"
category_label = "Condition met"

[[record]]
compound = "CNC(CC(C)C)C(=O)NC1C(=O)NC(CC(N)=O)C(=O)NC2C(=O)NC3C(=O)NC(C(=O)NC(C(=O)O)c4cc(O)cc(O)c4-c4cc3ccc4O)C(OC3CC(C)(N)C(O)C(C)O3)c3ccc(c(Cl)c3)Oc3cc2cc(c3OC2OC(CO)C(O)C(O)C2OC2CC(C)(NCc3ccc(O)c(O)c3)C(O)C(C)O2)Oc2ccc(cc2Cl)C1O (stereo not drawn)"
category_label = "Condition met"


Incoming: Hi there! Is MIC for CNC(CC(C)C)C(=O)NC1C(=O)NC(CC(N)=O)C(=O)NC2C(=O)NC3C(=O)NC(C(=O)NC(C(=O)O)c4cc(O)cc(O)c4-c4cc3ccc4O)C(OC3CC(C)(N)C(O)C(C)O3)c3ccc(c(Cl)c3)Oc3cc2cc(c3OC2OC(CO)C(O)C(O)C2OC2CC(C)(NCc3ccc(C=Cc4ccccc4)cc3)C(O)C(C)O2)Oc2ccc(cc2Cl)C1O (stereo not drawn) below 0.5 µg/mL, do you know?
Outgoing: Condition not met

Incoming: Hi there! Is MIC for CCCCCCCCCCC#CCNC1(C)CC(OC2C(Oc3c4cc5cc3Oc3ccc(cc3Cl)C(OC3CC(C)(N)C(O)C(C)O3)C3NC(=O)C(NC(=O)C5NC(=O)C(CC(N)=O)NC(=O)C(NC(=O)C(CC(C)C)NC)C(O)c5ccc(c(Cl)c5)O4)c4ccc(O)c(c4)-c4c(O)cc(O)cc4C(C(=O)O)NC3=O)OC(CO)C(O)C2O)OC(C)C1O (stereo not drawn) below 0.5 µg/mL, do you know?
Outgoing: Condition not met

Incoming: Hi there! Is MIC for CC(C)CC(C(=O)NC1C(=O)NC(CC(N)=O)C(=O)NC2C(=O)NC3C(=O)NC(C(=O)NC(C(=O)O)c4cc(O)cc(O)c4-c4cc3ccc4O)C(OC3CC(C)(N)C(O)C(C)O3)c3ccc(c(Cl)c3)Oc3cc2cc(c3OC2OC(CO)C(O)C(O)C2OC2CC(C)(NCc3cccc(Oc4ccccc4)c3)C(O)C(C)O2)Oc2ccc(cc2Cl)C1O)N(C)Cc1cccc(Oc2ccccc2)c1 (stereo not drawn) below 0.5 µg/mL, do you know?
Outgoing: Condition not met

Incoming: Hi there! Is MIC for CNC(CC(C)C)C(=O)NC1C(=O)NC(CC(N)=O)C(=O)NC2C(=O)NC3C(=O)NC(C(=O)NC(C(=O)O)c4cc(O)cc(O)c4-c4cc3ccc4O)C(OC3CC(C)(N)C(O)C(C)O3)c3ccc(c(Cl)c3)Oc3cc2cc(c3OC2OC(CO)C(O)C(O)C2OC2CC(C)(NCc3ccc(-c4ccccc4)cc3)C(O)C(C)O2)Oc2ccc(cc2Cl)C1O (stereo not drawn) [Compound 2, p-phenylbenzyl·A82846B] below 0.5 µg/mL, do you know?
Outgoing: Condition met
